# testTarget: TRPV1 (Mus musculus, UniProt Q704Y3)
# Sequence (Q704Y3 whole entry): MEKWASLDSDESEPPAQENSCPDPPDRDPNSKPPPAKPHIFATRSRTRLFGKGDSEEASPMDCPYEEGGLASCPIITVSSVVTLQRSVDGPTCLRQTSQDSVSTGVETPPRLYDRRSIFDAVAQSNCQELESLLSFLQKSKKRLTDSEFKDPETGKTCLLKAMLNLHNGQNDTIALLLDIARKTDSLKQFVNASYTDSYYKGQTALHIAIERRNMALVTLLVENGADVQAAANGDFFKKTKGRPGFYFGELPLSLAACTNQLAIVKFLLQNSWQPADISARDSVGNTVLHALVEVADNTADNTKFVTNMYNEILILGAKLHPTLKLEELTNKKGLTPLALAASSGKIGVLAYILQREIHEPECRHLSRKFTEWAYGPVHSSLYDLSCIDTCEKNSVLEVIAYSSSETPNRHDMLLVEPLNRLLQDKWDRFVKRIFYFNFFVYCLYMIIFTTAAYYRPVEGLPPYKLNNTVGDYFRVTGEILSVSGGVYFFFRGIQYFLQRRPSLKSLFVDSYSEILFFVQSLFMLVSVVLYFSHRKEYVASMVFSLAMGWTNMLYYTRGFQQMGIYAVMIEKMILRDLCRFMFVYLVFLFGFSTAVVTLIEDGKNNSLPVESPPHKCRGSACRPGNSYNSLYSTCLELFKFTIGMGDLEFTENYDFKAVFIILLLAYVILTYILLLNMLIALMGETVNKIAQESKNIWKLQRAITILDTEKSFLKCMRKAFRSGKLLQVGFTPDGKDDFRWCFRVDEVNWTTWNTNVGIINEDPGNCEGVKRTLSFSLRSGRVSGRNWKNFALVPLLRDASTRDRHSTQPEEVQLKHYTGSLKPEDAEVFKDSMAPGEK
# assayText: whole-cell patch clamp, inhibition of capsaicin
valueKind: pIC50
Note on units: pIC50 is unitless, being -log10 of a concentration expressed in mol/L.

Look at this compound and give its reported pIC50. CC(C)(C)c1ccc(/C=C/C(=O)Nc2ccc3c(c2)OCCO3)cc1
6.79

These entries and their values trace back to paper PMC3202339.
